Reference for the values: paper PMC12419465

- assay.target: full-length, proteolytically inactive Taspase 1 (Homo sapiens, UniProt Q9H6P5, D233A/T234A)
- Sequence (Q9H6P5 1-420 D233A/T234A): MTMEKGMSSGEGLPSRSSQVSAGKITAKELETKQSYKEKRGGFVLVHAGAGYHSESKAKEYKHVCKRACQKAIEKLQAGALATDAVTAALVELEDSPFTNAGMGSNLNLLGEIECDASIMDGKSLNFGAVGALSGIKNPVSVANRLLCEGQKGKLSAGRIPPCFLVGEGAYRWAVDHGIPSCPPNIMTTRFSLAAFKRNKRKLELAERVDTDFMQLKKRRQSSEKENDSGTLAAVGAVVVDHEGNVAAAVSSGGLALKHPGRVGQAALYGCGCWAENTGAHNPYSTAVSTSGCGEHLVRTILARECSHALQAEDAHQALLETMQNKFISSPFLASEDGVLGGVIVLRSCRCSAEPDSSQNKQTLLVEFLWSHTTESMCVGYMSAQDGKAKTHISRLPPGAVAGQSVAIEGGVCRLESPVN
- procedure.details: Surface plasmon resonance on immobilized full-length, inactive Taspase 1
- Assay type: binding
- protocol.conditions: E enriched isomer; Table S2; read-out: KD (E)
Measured pKd by item
Here pKd is given on a logarithmic scale as minus log10 of the concentration in mol/L.

Sample answers from the record:
{"compound": "Cc1nn(-c2ccc(C#Cc3ccc(-c4cn(CCOP(=O)(O)Oc5c6c(c(OP(=O)(O)O)c7c5C5CC7c7cc8c(cc75)C5CC8c7ccccc75)C5CC6c6cc7c(cc65)C5CC7c6ccccc65)nn4)cc3)cc2)c(C)c1N=Nc1ccc(C#Cc2ccc(-c3cn(CCOP(=O)(O)Oc4c5c(c(OP(=O)(O)O)c6c4C4CC6c6cc7c(cc64)C4CC7c6ccccc64)C4CC5c5cc6c(cc54)C4CC6c5ccccc54)nn3)cc2)cc1 [TWAAP4]", "pKd": 5.54}
{"compound": "Cc1nn(-c2ccc(-c3cn(CCOP(=O)(O)Oc4c5c(c(OP(=O)(O)O)c6c4C4CC6c6cc7c(cc64)C4CC7c6ccccc64)C4CC5c5cc6c(cc54)C4CC6c5ccccc54)nn3)cc2)c(C)c1N=Nc1ccc(-c2ccc(-c3cn(CCOP(=O)(O)Oc4c5c(c(OP(=O)(O)O)c6c4C4CC6c6cc7c(cc64)C4CC7c6ccccc64)C4CC5c5cc6c(cc54)C4CC6c5ccccc54)nn3)cc2)cc1 [TWAAP3]", "pKd": 5.39}
{"compound": "Cc1nn(-c2ccc(-n3cc(CCOP(=O)(O)Oc4c5c(c(OP(=O)(O)O)c6c4C4CC6c6cc7c(cc64)C4CC7c6ccccc64)C4CC5c5cc6c(cc54)C4CC6c5ccccc54)nn3)cc2)c(C)c1N=Nc1ccc(-n2cc(CCOP(=O)(O)Oc3c4c(c(OP(=O)(O)O)c5c3C3CC5c5cc6c(cc53)C3CC6c5ccccc53)C3CC4c4cc5c(cc43)C3CC5c4ccccc43)nn2)cc1 [TWAAP0]", "pKd": 6.15}
{"compound": "Cc1nn(Cc2cn(CCOP(=O)(O)Oc3c4c(c(OP(=O)(O)O)c5c3C3CC5c5cc6c(cc53)C3CC6c5ccccc53)C3CC4c4cc5c(cc43)C3CC5c4ccccc43)nn2)c(C)c1N=Nc1ccc(-c2cn(CCOP(=O)(O)Oc3c4c(c(OP(=O)(O)O)c5c3C3CC5c5cc6c(cc53)C3CC6c5ccccc53)C3CC4c4cc5c(cc43)C3CC5c4ccccc43)nn2)cc1 [TWAAP2]", "pKd": 5.25}

Now examine the next entry.
What does the data say about its pKd? Entry: O=P(O)(O)Oc1c2c(c(OP(=O)(O)OCCn3cc(-c4ccc(N=Nc5ccc(-c6cn(CCOP(=O)(O)Oc7c8c(c(OP(=O)(O)O)c9c7C7CC9c9cc%10c(cc97)C7CC%10c9ccccc97)C7CC8c8cc9c(cc87)C7CC9c8ccccc87)nn6)cc5)cc4)nn3)c3c1C1CC3c3cc4c(cc31)C1CC4c3ccccc31)C1CC2c2cc3c(cc21)C1CC3c2ccccc21 [TWAB1] 5.03
